# system: human GCG receptor (human, UniProt P47871 26-477)
# Sequence (P47871 26-477): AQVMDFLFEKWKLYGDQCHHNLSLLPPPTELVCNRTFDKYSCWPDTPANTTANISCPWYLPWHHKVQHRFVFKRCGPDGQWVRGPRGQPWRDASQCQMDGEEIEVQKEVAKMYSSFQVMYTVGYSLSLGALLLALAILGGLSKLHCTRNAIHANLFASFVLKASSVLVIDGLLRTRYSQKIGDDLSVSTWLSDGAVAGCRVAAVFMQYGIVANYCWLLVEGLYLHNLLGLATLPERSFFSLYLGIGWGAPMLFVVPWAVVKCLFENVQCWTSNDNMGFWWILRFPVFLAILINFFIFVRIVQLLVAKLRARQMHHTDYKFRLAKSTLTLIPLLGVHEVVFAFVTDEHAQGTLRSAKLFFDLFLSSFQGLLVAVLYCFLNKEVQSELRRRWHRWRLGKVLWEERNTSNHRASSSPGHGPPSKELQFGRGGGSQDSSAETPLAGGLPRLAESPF
# testSummary: cell-based or functional assay
Bridges are numbered along the chain shown (N, C = ends). Where no end group is shown, it is not given here. [ ]: non-standard residue; d: D form. The star is where a group is joined. Acetyl(2-(4-imidazolyl)) = O=C(Cc1c[nH]cn1)*; Aib = CC(C)(N)C(=O)O
binders and their reported In vitro activity relative to native peptide (%) vs. Glucagon
measuredParameter: In vitro activity relative to native peptide (%) vs. Glucagon

binder: {Acetyl(2-(4-imidazolyl))}-[Aib]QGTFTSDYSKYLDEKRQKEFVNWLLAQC (bridge 15-19) [triple agonist of SEQ ID NO: 86]
outputUnit: %
valueQualifier: =
numericResult: 0.4
--
binder: Y[Aib]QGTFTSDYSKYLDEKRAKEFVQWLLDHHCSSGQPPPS (bridge 16-20) [triple agonist of SEQ ID NO: 43]
outputUnit: %
valueQualifier: =
numericResult: 88.4
--
binder: [Acetyl(2-(4-imidazolyl))]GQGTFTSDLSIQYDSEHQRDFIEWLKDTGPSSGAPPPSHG [triple agonist of SEQ ID NO: 19]
outputUnit: %
valueQualifier: <
numericResult: 0.1
--
binder: {Acetyl(2-(4-imidazolyl))}-[Aib]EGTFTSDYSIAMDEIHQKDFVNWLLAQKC (bridge 15-19) [triple agonist of SEQ ID NO: 90]
outputUnit: %
valueQualifier: <
numericResult: 0.1
--
binder: H[Aib]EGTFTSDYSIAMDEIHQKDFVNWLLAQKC (bridge 16-20) [triple agonist of SEQ ID NO: 79]
outputUnit: %
valueQualifier: =
numericResult: 4.9
--
binder: H[Aib]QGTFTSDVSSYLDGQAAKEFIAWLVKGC [triple agonist of SEQ ID NO: 1]
outputUnit: %
valueQualifier: <
numericResult: 0.1
--
binder: H[Aib]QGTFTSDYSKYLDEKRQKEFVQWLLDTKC (bridge 16-20) [triple agonist of SEQ ID NO: 78]
outputUnit: %
valueQualifier: =
numericResult: 14
--
binder: Y[Aib]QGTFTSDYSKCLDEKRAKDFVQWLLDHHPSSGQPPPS (bridge 16-20) [triple agonist of SEQ ID NO: 70]
outputUnit: %
valueQualifier: =
numericResult: 71.3
--
binder: H[Aib]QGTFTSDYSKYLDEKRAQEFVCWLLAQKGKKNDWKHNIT [triple agonist of SEQ ID NO: 28]
outputUnit: %
valueQualifier: =
numericResult: 1.6
--
binder: Y[Aib]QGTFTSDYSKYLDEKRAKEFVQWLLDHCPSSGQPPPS (bridge 16-20) [triple agonist of SEQ ID NO: 96]
outputUnit: %
valueQualifier: =
numericResult: 195
